Overview of reported melting point across a group of molecules:
Field format: number, assumed °C, no unit text.

Example cases with answers are listed next.
For reference, reported melting point for COc1cc2c(cc1CNC(=O)C(C)Oc1ccc(Cl)cc1Cl)OCCO2 (stereo not drawn) [MBX-1998] stands at 152

For reference, reported melting point for CC(Oc1ccc(F)cc1Cl)C(=O)NCc1ccc(F)cc1 (stereo not drawn) [MBX-2029] stands at 95

Moving on to the next molecule.
For reference, reported melting point for CC(Oc1ccc(Cl)cc1Cl)C(=O)NC(C)(C)c1ccc2c(c1)OCO2 (stereo not drawn) [MBX-2220] stands at 105

---

Field 'label' (enum: class 1 / class 0). Set to class 1 when melting point is strictly under 100 °C; else class 0.

Q) Problem: For the compound COC(=O)C(NC(=O)C(C)Oc1ccc(Cl)cc1Cl)c1ccc(F)cc1 (stereo not shown) , is melting point under 100 °C?
A) class 1

Others:
Q) Problem: For the compound CC(Oc1ncc(Cl)cc1Cl)C(=O)NCc1ccc2c(c1)OCO2 (stereo not shown) , is melting point under 100 °C?
A) class 0

Q) Problem: For the compound CCCC(NC(=O)C(C)Oc1ccc(Cl)cc1Cl)c1ccc(F)cc1 (stereo not shown) , is melting point under 100 °C?
A) class 1

Q) Problem: For the compound CC(Oc1ccc(Cl)cc1Cl)C(=O)NC(C#N)c1ccc(F)cc1 (stereo not shown) , is melting point under 100 °C?
A) class 0

Q) Problem: For the compound CC(Oc1ccc(Cl)cc1Cl)C(=O)NCCc1c[nH]c2cc(F)ccc12 (stereo not shown) , is melting point under 100 °C?
A) class 0

Q) Problem: For the compound CC(Oc1ccc(Cl)cc1Cl)C(=O)NCc1ccc2occc2c1 (stereo not shown) , is melting point under 100 °C?
A) class 0

Q) Problem: For the compound CC(Oc1ccc(Cl)cc1Cl)C(=O)NCc1ccc(C2(C(F)(F)F)N=N2)cc1 (stereo not shown) , is melting point under 100 °C?
A) class 0

Q) Problem: For the compound CC(Oc1ccc(Cl)cc1Cl)C(=O)NCCc1ccc(F)cc1 (stereo not shown) , is melting point under 100 °C?
A) class 0

Q) Problem: For the compound Cc1c(-c2ccccc2)[nH]c2ccc(CNC(=O)C(C)Oc3ccc(Cl)cc3Cl)cc12 (stereo not shown) , is melting point under 100 °C?
A) class 1

Q) Problem: For the compound COc1cccc(CNC(=O)C(C)Oc2ccc(Cl)cc2Cl)c1OC (stereo not shown) , is melting point under 100 °C?
A) class 0

Q) Problem: For the compound COc1ccc(CNC(=O)C(C)Oc2ccc(Cl)cc2Cl)cc1 (stereo not shown) , is melting point under 100 °C?
A) class 1

Q) Problem: For the compound CC(Oc1ccc(Cl)cc1Cl)C(=O)NC1COc2cc(F)ccc21 (stereo not shown) , is melting point under 100 °C?
A) class 0
